Each entry below carries its recorded Ki.
- TARGET_ENTITY: human 5-HT2Cedited receptor (Homo sapiens)
- Sequence (P28335 33-458 limits assumed): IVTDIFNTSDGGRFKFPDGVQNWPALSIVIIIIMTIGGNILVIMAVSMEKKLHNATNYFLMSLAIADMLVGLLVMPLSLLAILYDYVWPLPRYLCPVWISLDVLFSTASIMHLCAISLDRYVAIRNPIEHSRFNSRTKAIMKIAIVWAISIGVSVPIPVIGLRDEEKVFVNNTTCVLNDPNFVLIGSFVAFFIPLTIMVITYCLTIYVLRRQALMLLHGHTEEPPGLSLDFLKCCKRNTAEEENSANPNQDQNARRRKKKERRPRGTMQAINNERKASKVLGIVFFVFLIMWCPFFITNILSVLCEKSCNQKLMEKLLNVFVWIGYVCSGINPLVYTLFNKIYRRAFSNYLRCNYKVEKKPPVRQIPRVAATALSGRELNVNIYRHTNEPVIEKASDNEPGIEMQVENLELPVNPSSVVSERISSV
- TEST_METHOD_NOTES: Radioligand binding competition, 5-HT2Cedited
- CONDITION_PARAMETERS: selectivity panel; read-out: RLB 5-HT2Cedited Ki
The reply should contain only the number, in nM.

COMPOUND_STRING | Ki (nM)
CC(C)(CCN1CCN(c2ccc(F)cc2)CC1)CCn1c(=O)[nH]c2ccccc21 | 181
O=c1[nH]c2ccccc2n1CCCCCN1CCCN(c2ccc(F)cc2)CC1 | 148

Next compound, Ki to be filled in.
I have this compound here, "O=C(c1ccc(F)cc1)C1CCN(CCCCn2c(=O)[nH]c3ccccc32)CC1" , and I need its recorded Ki.
115

###

- TARGET_ENTITY: human 5-HT1A receptor (Homo sapiens (Human), UniProt P08908)
- Sequence (P08908 whole entry): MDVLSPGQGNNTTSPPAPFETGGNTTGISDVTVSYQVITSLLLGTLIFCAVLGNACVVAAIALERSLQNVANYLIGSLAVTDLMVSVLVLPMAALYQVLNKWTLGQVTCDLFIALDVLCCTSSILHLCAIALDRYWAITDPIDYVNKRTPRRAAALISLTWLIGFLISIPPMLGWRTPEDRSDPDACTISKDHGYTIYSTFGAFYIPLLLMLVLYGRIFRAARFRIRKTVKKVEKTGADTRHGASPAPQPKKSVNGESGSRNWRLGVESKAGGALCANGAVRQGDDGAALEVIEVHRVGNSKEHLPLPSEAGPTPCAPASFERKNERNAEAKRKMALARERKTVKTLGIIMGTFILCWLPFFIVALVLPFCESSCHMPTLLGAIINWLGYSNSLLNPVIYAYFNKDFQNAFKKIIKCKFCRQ
Recorded Ki by entry
Hi! Could you send only the number? It should be in nM, unit omitted.

Hello, I am looking for reported Ki with human 5-HT1A receptor (Homo sapiens (Human), UniProt P08908) for "O=c1[nH]c2ccccc2n1CCCCCN1CCCN(c2ccc(F)cc2)CC1" . Could you help?
425

# value lookup — system human 5-HT1A receptor (Homo sapiens (Human), UniProt P08908), readout Ki, item "O=C(c1ccc(F)cc1)C1CCN(CCCCn2c(=O)[nH]c3ccccc32)CC1"
442

Test system human 5-HT1A receptor (Homo sapiens (Human), UniProt P08908); read-out Ki; what value for "CC(C)(CCN1CCN(c2ccc(F)cc2)CC1)CCn1c(=O)[nH]c2ccccc21" ?
83.6

Field: Ki (human 5-HT1A receptor (Homo sapiens (Human), UniProt P08908)). Entry: "O=c1[nH]c2ccccc2n1CCCCCN1CCN(c2ccccn2)CC1"
20.7

Reported Ki for human 5-HT1A receptor (Homo sapiens (Human), UniProt P08908), given "O=c1[nH]c2ccccc2n1CN1CCN(c2ccc(F)cc2)CC1" ?
102

###

As a worked illustration, we turn to pKi data collected for human 5-HT7a receptor (Homo sapiens (Human), UniProt P34969).
Schema: pKi number; meaning minus log10 of the concentration expressed in molar units.

Please review the following examples before continuing.
COMPOUND_STRING | pKi
O=c1[nH]c2ccccc2n1CCCCCN1CCN(c2ccccn2)CC1 | 8.93
O=c1[nH]c2ccccc2n1CCCCCN1CCN(c2ncncn2)CC1 | 6.59
O=c1[nH]c2ccccc2n1CN1CCN(c2ccccc2C(F)(F)F)CC1 | 8.48
O=C(c1ccc(F)cc1)C1CCN(CCCCn2c(=O)[nH]c3ccccc32)CC1 | 9.70
CC(C)(CCN1CCN(c2ccc(F)cc2)CC1)CCn1c(=O)[nH]c2ccccc21 | 8.72
O=c1[nH]c2ccccc2n1CCOCCN1CCN(c2ccc(F)cc2)CC1 | 7.87
O=c1[nH]c2ccccc2n1CCCCCN1CCN(c2ccc(O)cc2)CC1 | 8.86

Can you look up the measured pKi of "O=c1[nH]c2ccccc2n1CCCCCN1C[C@@H]2CN(c3ccc(F)cc3)C[C@@H]2C1" for me?
8.38

###

Reported IC50 values, human 5-HT2A receptor (Homo sapiens (Human), UniProt P28223).
Write your answer as a measured quantity: the number, then the unit.

Here is how some compounds turned out for IC50.
COMPOUND_STRING | IC50
O=c1[nH]c2ccccc2n1CCCCCN1CCCN(c2ccc(F)cc2)CC1 | 137 nM
O=c1[nH]c2ccccc2n1CCCCCN1CCN(c2ccccn2)CC1 | 44.2 nM

--- query ---
Param readout= IC50; system= human 5-HT2A receptor (Homo sapiens (Human), UniProt P28223); entry= "O=C(c1ccc(F)cc1)C1CCN(CCCCn2c(=O)[nH]c3ccccc32)CC1" ; returns value.
3.29 nM
